tested on: S1507-2; assay: % inhibition of CellTiter-Glo viability at highest tested concentration (72 h), relative to DMSO and benzethonium chloride controls; higher = more inhibition

# Compound, % inhibition (%)
records = [
    ("C[C@@H]1CCN(C(=O)CC#N)C[C@@H]1N(C)c1ncnc2[nH]ccc12 [Tofacitinib] (max concentration tested 5000 nM)", 0.251),
    ("CCN(CC)CCNC(=O)c1c(C)[nH]c(/C=C2\\C(=O)Nc3ccc(F)cc32)c1C [Sunitinib] (max concentration tested 1000 nM)", 17.7),
    ("CS(=O)(=O)c1ccc(C2=C(c3ccccc3)C(=O)OC2)cc1 [Rofecoxib] (max concentration tested 10000 nM)", 3.17),
    ("CC(=O)O[C@]1(C(C)=O)CC[C@H]2[C@@H]3C=C(C)C4=CC(=O)CC[C@]4(C)[C@H]3CC[C@@]21C [Megestrol] (max concentration tested 10000 nM)", -2.04),
    ("CC(C)c1c(C(=O)Nc2ccccc2)c(-c2ccccc2)c(-c2ccc(F)cc2)n1CC[C@@H](O)C[C@@H](O)CC(=O)O [Atorvastatin] (max concentration tested 10000 nM)", 41.9),
    ("N[C@@H](Cc1ccc(N(CCCl)CCCl)cc1)C(=O)O [Melphalan aq] (max concentration tested 12500 nM)", 6.15),
    ("CC1(C)CCC(CN2CCN(c3ccc(C(=O)NS(=O)(=O)c4ccc(NCC5CCOCC5)c([N+](=O)[O-])c4)c(Oc4cnc5[nH]ccc5c4)c3)CC2)=C(c2ccc(Cl)cc2)C1 [ABT-199] (max concentration tested 10000 nM)", 8.98),
    ("Cc1sc2c(c1C)C(c1ccc(Cl)cc1)=N[C@H](CC(=O)OC(C)(C)C)c1nnc(C)n1-2 [(-)JQ1] (max concentration tested 10000 nM)", 12.5),
    ("CC(=O)Nc1cccc(-n2c(=O)n(C3CC3)c(=O)c3c(Nc4ccc(I)cc4F)n(C)c(=O)c(C)c32)c1 [Trametinib] (max concentration tested 250 nM)", 76.9),
    ("Oc1ncc(N(CCCl)CCCl)c(O)n1 [Uracil mustard] (max concentration tested 10000 nM)", -1.65),
    ("CC(C)(C)c1cc(NC(=O)Nc2ccc(-c3cn4c(n3)sc3cc(OCCN5CCOCC5)ccc34)cc2)no1 [Quizartinib] (max concentration tested 1000 nM)", 21.3),
    ("CS(=O)(=O)CCNCc1ccc(-c2ccc3ncnc(Nc4ccc(OCc5cccc(F)c5)c(Cl)c4)c3c2)o1 [Lapatinib] (max concentration tested 1000 nM)", 2.48),
]

Every entry's value here was drawn from the supplement of paper PMC5579334.
